assay: Inhibitor binding assay of SEQ ID NO 3 variants, Inhibitor 2, in Model B detergent; type: biochemical; details: in Model B relative to SEQ ID NO 3; relative Ki, IF>1.0 = lower Ki
quantity: inhibitor 2 binding constant improvement factors (IF)
Number only, no unit.

Indicate its recorded inhibitor 2 binding constant improvement factors (IF); the molecule in question is S144R: protease variant of SEQ ID NO 3 (protein, listed as Bacillus sp.) AVPSTQTPWGIKSIYNDQSITKTTGGSGIKVAVLDTGVYTSHLDLAGSAEQCKDFTQSNPLVDGSCTDRQGHGTHVAGTVLAHGGSNGQGVYGVAPQAKLWAYKVLGDNGSGYSDDIAAAIRHVADEASRTGSKVVINMSLGSRAKDSLIASAVDYAYGKGVLIVAAAGNSGSGSNTIGFPGGLVNAVAVAALENVQQNGTYRVADFSSRGNPATAGDYIIQERDIEVSAPGASVESTWYTGGYNTISGTSMATPHVAGLAAKIWSANTSLSHSQLRTELQNRAKVYDIKGGIGAGTGDDYASGFGYPRVK
2.03

---
Let me know recorded inhibitor 2 binding constant improvement factors (IF) for L184F: protease variant of SEQ ID NO 3 (protein, listed as Bacillus sp.) AVPSTQTPWGIKSIYNDQSITKTTGGSGIKVAVLDTGVYTSHLDLAGSAEQCKDFTQSNPLVDGSCTDRQGHGTHVAGTVLAHGGSNGQGVYGVAPQAKLWAYKVLGDNGSGYSDDIAAAIRHVADEASRTGSKVVINMSLGSSAKDSLIASAVDYAYGKGVLIVAAAGNSGSGSNTIGFPGGFVNAVAVAALENVQQNGTYRVADFSSRGNPATAGDYIIQERDIEVSAPGASVESTWYTGGYNTISGTSMATPHVAGLAAKIWSANTSLSHSQLRTELQNRAKVYDIKGGIGAGTGDDYASGFGYPRVK , thanks.
1.39

meta.source: patent US20170342349A1
